System: NCI-H460
experimental readout: GI50 (nM)
Reply with just the number (in nM).

compound: CCOC(=O)c1c[nH]c(/C=N/NC(=O)c2[nH]c3ccc(Br)cc3c2-c2ccccc2)c1 [Derivative 3j]
GI50 [nM]: 2410
--
compound: CCc1c[nH]c(/C=N/NC(=O)c2[nH]c3ccc(Br)cc3c2-c2ccccc2)c1 [Derivative 3t]
GI50 [nM]: 346
--
compound: O=C(N/N=C/c1cc(Br)c(Br)[nH]1)c1[nH]c2ccc(Br)cc2c1-c1ccccc1 [Derivative 3f]
GI50 [nM]: 2530
--
compound: CCOC(=O)c1cc(/C=N/NC(=O)c2[nH]c3ccc(Br)cc3c2-c2ccccc2)c[nH]1 [Derivative 3v]
GI50 [nM]: 3490
--
compound: O=C(N/N=C/c1ccc(C(=O)N2CCOCC2)[nH]1)c1[nH]c2ccc(Br)cc2c1-c1ccccc1 [Derivative 3n]
GI50 [nM]: 2490

Q: Give GI50 only, for O=C(N/N=C/c1cc[nH]c1)c1[nH]c2ccc(Br)cc2c1-c1ccccc1 [Derivative 3b] , using NCI-H460 data.
Ans: 657

Q: Give GI50 only, for O=C(N/N=C/c1ccc[nH]1)c1[nH]c2ccc(Br)cc2c1-c1ccccc1 [Derivative 3a] , using NCI-H460 data.
Ans: 318

Q: Give GI50 only, for O=C(N/N=C/c1ccc([N+](=O)[O-])[nH]1)c1[nH]c2ccc(Br)cc2c1-c1ccccc1 [Derivative 3p] , using NCI-H460 data.
Ans: 421

###

This section lists GI50 readings for BT-549.
Reply with just the number (in µM).

smiles text: CCc1c[nH]c(/C=N/NC(=O)c2[nH]c3ccc(Br)cc3c2-c2ccccc2)c1
test target: BT-549
GI50 [µM]: 0.39
//
smiles text: CCOC(=O)c1ccc(/C=N/NC(=O)c2[nH]c3ccc(Br)cc3c2-c2ccccc2)[nH]1
test target: BT-549
GI50 [µM]: 3.47
//
smiles text: O=C(N/N=C/c1cc(Br)c[nH]1)c1[nH]c2ccc(Br)cc2c1-c1ccccc1
test target: BT-549
GI50 [µM]: 0.314
//
smiles text: O=C(N/N=C/c1ccc(C(=O)N2CCOCC2)[nH]1)c1[nH]c2ccc(Br)cc2c1-c1ccccc1
test target: BT-549
GI50 [µM]: 2.36

Q: Give GI50 only, for O=C(N/N=C/c1ccc([N+](=O)[O-])[nH]1)c1[nH]c2ccc(Br)cc2c1-c1ccccc1 , using BT-549 data.
Ans: 1.52

Q: Give GI50 only, for CCOC(=O)c1cc(/C=N/NC(=O)c2[nH]c3ccc(Br)cc3c2-c2ccccc2)c[nH]1 , using BT-549 data.
Ans: 13.4

Q: Give GI50 only, for O=C(N/N=C/c1cc(Br)c(Br)[nH]1)c1[nH]c2ccc(Br)cc2c1-c1ccccc1 , using BT-549 data.
Ans: 3.69

Q: Give GI50 only, for O=C(N/N=C/c1ccc[nH]1)c1[nH]c2ccc(Br)cc2c1-c1ccccc1 , using BT-549 data.
Ans: 0.375

###

# CC50 per record follows
System: RXF 393
Experiment: NCI60 five-dose screen
Format: cell-based
Details: Homo sapiens; RXF 393, renal cancer; read-out: LC50 (the source's name)
Reply with just the number (in µM).

Known CC50 results, listed for orientation:
compound: O=C(N/N=C/c1ccc[nH]1)c1[nH]c2ccc(Br)cc2c1-c1ccccc1 [Derivative 3a]
test target: RXF 393
CC50 [µM]: 35.1

compound: Cc1[nH]c(/C=N/NC(=O)c2[nH]c3ccc(Br)cc3c2-c2ccccc2)c(C)c1[N+](=O)[O-] [Derivative 3r]
test target: RXF 393
CC50 [µM]: 15.9

compound: CCc1ccc(/C=N/NC(=O)c2[nH]c3ccc(Br)cc3c2-c2ccccc2)[nH]1 [Derivative 3s]
test target: RXF 393
CC50 [µM]: 28.9

compound: O=C(N/N=C/c1cc[nH]c1)c1[nH]c2ccc(Br)cc2c1-c1ccccc1 [Derivative 3b]
test target: RXF 393
CC50 [µM]: 46.5

Next up:
Q: Give CC50 only, for O=C(N/N=C/c1ccc(C(=O)N2CCOCC2)[nH]1)c1[nH]c2ccc(Br)cc2c1-c1ccccc1 [Derivative 3n] , using RXF 393 data.
Ans: 14.7

###

Test system: SNB-75
Assay: NCI60 five-dose screen
Format: cell-based
Settings: Homo sapiens; SNB-75, CNS cancer; read-out: LC50 (the source's name)
# CC50 per record follows

Known CC50 results, listed for orientation:
smiles text: O=C(N/N=C/c1[nH]ccc1Cl)c1[nH]c2ccc(Br)cc2c1-c1ccccc1
experimental readout: CC50
result: 38.6 µM
//
smiles text: CCc1c[nH]c(/C=N/NC(=O)c2[nH]c3ccc(Br)cc3c2-c2ccccc2)c1
experimental readout: CC50
result: 37.8 µM
//
smiles text: O=C(N/N=C/c1cc(Cl)c[nH]1)c1[nH]c2ccc(Br)cc2c1-c1ccccc1
experimental readout: CC50
result: 75.5 µM
//
smiles text: Cc1[nH]c(/C=N/NC(=O)c2[nH]c3ccc(Br)cc3c2-c2ccccc2)c(C)c1[N+](=O)[O-]
experimental readout: CC50
result: 21.5 µM
//
smiles text: O=C(N/N=C/c1cc(Br)c[nH]1)c1[nH]c2ccc(Br)cc2c1-c1ccccc1
experimental readout: CC50
result: 51 µM
//
smiles text: O=C(N/N=C/c1cc([N+](=O)[O-])c[nH]1)c1[nH]c2ccc(Br)cc2c1-c1ccccc1
experimental readout: CC50
result: > 100 µM
//
smiles text: O=C(N/N=C/c1ccc(C(=O)N2CCOCC2)[nH]1)c1[nH]c2ccc(Br)cc2c1-c1ccccc1
experimental readout: CC50
result: 88.9 µM

Next up:
Q: Answer with the recorded CC50 of O=C(N/N=C/c1ccc[nH]1)c1[nH]c2ccc(Br)cc2c1-c1ccccc1 only.
Ans: 16 µM

###

System: MDA-MB-231/ATCC
Experiment: NCI60 five-dose screen
Assay type: cell-based
Conditions: Homo sapiens, breast cancer, read-out: LC50 (the source's name)
experimental readout: CC50
# do not omit the unit; it follows the number

Known CC50 results, listed for orientation:
smiles text: CCc1cc[nH]c1/C=N/NC(=O)c1[nH]c2ccc(Br)cc2c1-c1ccccc1
test target: MDA-MB-231/ATCC
CC50: 44.7 µM

smiles text: O=C(N/N=C/c1cc(Cl)c[nH]1)c1[nH]c2ccc(Br)cc2c1-c1ccccc1
test target: MDA-MB-231/ATCC
CC50: 26.9 µM

smiles text: CCc1ccc(/C=N/NC(=O)c2[nH]c3ccc(Br)cc3c2-c2ccccc2)[nH]1
test target: MDA-MB-231/ATCC
CC50: 48.4 µM

Q: Answer with the recorded CC50 of O=C(N/N=C/c1cc[nH]c1)c1[nH]c2ccc(Br)cc2c1-c1ccccc1 only.
Ans: 26.4 µM

###

System: OVCAR-8
# GI50 per record follows
Reply with just the number (in nM).

smiles text: O=C(N/N=C/c1[nH]ccc1Cl)c1[nH]c2ccc(Br)cc2c1-c1ccccc1
GI50 [nM]: 481

smiles text: O=C(N/N=C/c1cc([N+](=O)[O-])c[nH]1)c1[nH]c2ccc(Br)cc2c1-c1ccccc1
GI50 [nM]: 10200

smiles text: Cn1cccc1/C=N/NC(=O)c1[nH]c2ccc(Br)cc2c1-c1ccccc1
GI50 [nM]: 390

Next up:
Q: Answer with the recorded GI50 of CCc1c[nH]c(/C=N/NC(=O)c2[nH]c3ccc(Br)cc3c2-c2ccccc2)c1 only.
Ans: 316

###

This section lists GI50 readings for SW-620.
Reply with just the number (in µM).

Known GI50 results, listed for orientation:
smiles text: Cn1cccc1/C=N/NC(=O)c1[nH]c2ccc(Br)cc2c1-c1ccccc1
test target: SW-620
GI50 [µM]: 0.432
--
smiles text: CCOC(=O)c1c[nH]c(/C=N/NC(=O)c2[nH]c3ccc(Br)cc3c2-c2ccccc2)c1
test target: SW-620
GI50 [µM]: 3.36
--
smiles text: CCc1cc[nH]c1/C=N/NC(=O)c1[nH]c2ccc(Br)cc2c1-c1ccccc1
test target: SW-620
GI50 [µM]: 3.82
--
smiles text: CCOC(=O)c1cc(/C=N/NC(=O)c2[nH]c3ccc(Br)cc3c2-c2ccccc2)c[nH]1
test target: SW-620
GI50 [µM]: 4.41
--
smiles text: Cc1[nH]c(/C=N/NC(=O)c2[nH]c3ccc(Br)cc3c2-c2ccccc2)c(C)c1[N+](=O)[O-]
test target: SW-620
GI50 [µM]: 2.06
--
smiles text: O=C(N/N=C/c1cc(Br)c(Br)[nH]1)c1[nH]c2ccc(Br)cc2c1-c1ccccc1
test target: SW-620
GI50 [µM]: 2.96

Q: Answer with the recorded GI50 of O=C(N/N=C/c1cc[nH]c1)c1[nH]c2ccc(Br)cc2c1-c1ccccc1 only.
Ans: 0.548

Q: Answer with the recorded GI50 of O=C(N/N=C/c1ccc(C(=O)N2CCOCC2)[nH]1)c1[nH]c2ccc(Br)cc2c1-c1ccccc1 only.
Ans: 3.26
